- STUDY TARGET: UniProtKB P25106
- Sequence (P25106 whole entry): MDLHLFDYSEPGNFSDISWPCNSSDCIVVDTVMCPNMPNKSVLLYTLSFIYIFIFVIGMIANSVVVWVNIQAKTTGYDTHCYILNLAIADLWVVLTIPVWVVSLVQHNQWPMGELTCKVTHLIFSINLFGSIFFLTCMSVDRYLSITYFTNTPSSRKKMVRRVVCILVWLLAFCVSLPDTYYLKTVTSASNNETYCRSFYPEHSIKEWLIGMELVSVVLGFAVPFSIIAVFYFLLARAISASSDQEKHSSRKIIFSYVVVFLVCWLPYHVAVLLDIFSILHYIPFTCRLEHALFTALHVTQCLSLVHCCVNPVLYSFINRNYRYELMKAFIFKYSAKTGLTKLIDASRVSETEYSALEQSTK
- PROTOCOL NOTES: Inhibition of [125I]SDF-1alpha binding to CXCR7 (unknown origin) expressed in CHO cell membranes incubated for 1 hr by radioligand displacement assay
pIC50: −log10 of the molar value. Where a SMILES comes first, the peptide text is derived from it. [ ]: non-standard residue; d: D form. 2Nal = N[C@@H](Cc1ccc2ccccc2c1)C(=O)O; Pip = O=C(O)[C@@H]1CCCCN1
QUANTITY MEASURED: pIC50

C[C@H]1C(=O)N[C@H](Cc2ccc(O)cc2)C(=O)N[C@@H](CCCNC(=N)N)C(=O)N[C@@H](CCCNC(=N)N)C(=O)N[C@@H](Cc2ccc3ccccc3c2)C(=O)N1C	4.82
N=C(N)NCCC[C@@H]1NC(=O)[C@@H](CCCNC(=N)N)NC(=O)[C@@H](Cc2ccc(O)cc2)NC(=O)[C@@H]2CCCN2C(=O)[C@H](Cc2ccc3ccccc3c2)NC1=O	5.34
C[C@@H]1NC(=O)[C@H](Cc2ccc3ccccc3c2)NC(=O)[C@H](CCCNC(=N)N)NC(=O)[C@H](CCCNC(=N)N)NC(=O)[C@@H](Cc2ccc(O)cc2)NC1=O (cyclo([2Nal]A[dY]RR))	4.74
C[C@H]1C(=O)N[C@@H](Cc2ccc3ccccc3c2)C(=O)N2CCC[C@H]2C(=O)N[C@H](Cc2ccc(O)cc2)C(=O)N[C@@H](CCCNC(=N)N)C(=O)N1C	4.96
CN1C(=O)[C@H](CCCNC(=N)N)NC(=O)[C@@H](Cc2ccc(O)cc2)NC(=O)[C@@H]2CCCN2C(=O)[C@H](Cc2ccc3ccccc3c2)NC(=O)[C@@H]1CCCNC(=N)N	6.10
N=C(N)NCCC[C@@H]1NC(=O)[C@H](CCCNC(=N)N)NC(=O)[C@@H](Cc2ccc(O)cc2)NC(=O)[C@@H]2CCCCN2C(=O)[C@H](Cc2ccc3ccccc3c2)NC1=O (cyclo([2Nal][Pip][dY]RR))	4.89
CN1C(=O)[C@H](CCCNC(=N)N)NC(=O)[C@H](CCCNC(=N)N)NC(=O)[C@@H](Cc2ccc(O)cc2)NC(=O)[C@@H]2CCCN2C(=O)[C@@H]1Cc1ccc2ccccc2c1	5.47
